The values you see were collected from the nanobody polyreactivity screen of Harvey et al. (2022).

test: yeast display, Sf9 membrane polyspecificity reagent, FACS + sequencing; frameworks hold sequencing errors
Quantity Measured: polyreactivity (PSR sort gate)

Study these solved cases before continuing.
QVQLVESGGGLVQAGGRHRISCAASGLICVTYAMGWYRQAPGKERELVAVITASGDGTYYADSVKGRFTMSRDNAKNTVYLQMNSLKPEDSAVYSCAAGNMSQVGAIGKNTSQSDYWGQGTHVTVSS :: low polyreactivity
QVQLVESGGGLVQAGGSLRLSCAASGFTFARYTRVWSRQAPGKERELVAAISKRGTSTYYADSVKGRFTISRDNAQNTVYLQMNSLKAEDTAVYYCAATPGTGYGDYDYWGQGTQVTVSS :: high polyreactivity
QGQLVESGGGLVQAGGSLRLSCAASGRISYYYAMGWYRQAPGKERELVAAISRRSTSTYYADSVKGRFTISRDYAKNTVYLQMNSLKPEDTAVYYCAARYIRAFSWRMDYWGQGTQVTVSS :: high polyreactivity
QDQLVESGGGLVQAGVSLRLSCAASGSIFNRNAMGWYRQAPGKERELVADISWSGGSTYYADSVKGRFTISRDNAKNTVYLQMNSLKPEDTAVYYCADKSTGRWWRAGYDYWGQGTQVTVSS :: high polyreactivity

Now for a further sequence.
// `QVQLVESGGGLVQAGGSLRLSCAASGLIFGGYAMGWYRQAPGKERELVAAIYWDDGDTYYADSVKGRFTISRDNAKNTVYLQMNSLKTEDTAVYYCNAAGALIFGEGYYVEYDYDYWGQGTQVTVSS` : polyreactivity (PSR sort gate) value = low polyreactivity
